Values from ChEMBL document CHEMBL3988442

Biological target: Chromo domain-containing protein 1 (Saccharomyces cerevisiae (strain ATCC 204508 / S288c) (Baker's yeast)) (UniProt P32657)
Sequence (P32657 whole entry, the tested form may be a part): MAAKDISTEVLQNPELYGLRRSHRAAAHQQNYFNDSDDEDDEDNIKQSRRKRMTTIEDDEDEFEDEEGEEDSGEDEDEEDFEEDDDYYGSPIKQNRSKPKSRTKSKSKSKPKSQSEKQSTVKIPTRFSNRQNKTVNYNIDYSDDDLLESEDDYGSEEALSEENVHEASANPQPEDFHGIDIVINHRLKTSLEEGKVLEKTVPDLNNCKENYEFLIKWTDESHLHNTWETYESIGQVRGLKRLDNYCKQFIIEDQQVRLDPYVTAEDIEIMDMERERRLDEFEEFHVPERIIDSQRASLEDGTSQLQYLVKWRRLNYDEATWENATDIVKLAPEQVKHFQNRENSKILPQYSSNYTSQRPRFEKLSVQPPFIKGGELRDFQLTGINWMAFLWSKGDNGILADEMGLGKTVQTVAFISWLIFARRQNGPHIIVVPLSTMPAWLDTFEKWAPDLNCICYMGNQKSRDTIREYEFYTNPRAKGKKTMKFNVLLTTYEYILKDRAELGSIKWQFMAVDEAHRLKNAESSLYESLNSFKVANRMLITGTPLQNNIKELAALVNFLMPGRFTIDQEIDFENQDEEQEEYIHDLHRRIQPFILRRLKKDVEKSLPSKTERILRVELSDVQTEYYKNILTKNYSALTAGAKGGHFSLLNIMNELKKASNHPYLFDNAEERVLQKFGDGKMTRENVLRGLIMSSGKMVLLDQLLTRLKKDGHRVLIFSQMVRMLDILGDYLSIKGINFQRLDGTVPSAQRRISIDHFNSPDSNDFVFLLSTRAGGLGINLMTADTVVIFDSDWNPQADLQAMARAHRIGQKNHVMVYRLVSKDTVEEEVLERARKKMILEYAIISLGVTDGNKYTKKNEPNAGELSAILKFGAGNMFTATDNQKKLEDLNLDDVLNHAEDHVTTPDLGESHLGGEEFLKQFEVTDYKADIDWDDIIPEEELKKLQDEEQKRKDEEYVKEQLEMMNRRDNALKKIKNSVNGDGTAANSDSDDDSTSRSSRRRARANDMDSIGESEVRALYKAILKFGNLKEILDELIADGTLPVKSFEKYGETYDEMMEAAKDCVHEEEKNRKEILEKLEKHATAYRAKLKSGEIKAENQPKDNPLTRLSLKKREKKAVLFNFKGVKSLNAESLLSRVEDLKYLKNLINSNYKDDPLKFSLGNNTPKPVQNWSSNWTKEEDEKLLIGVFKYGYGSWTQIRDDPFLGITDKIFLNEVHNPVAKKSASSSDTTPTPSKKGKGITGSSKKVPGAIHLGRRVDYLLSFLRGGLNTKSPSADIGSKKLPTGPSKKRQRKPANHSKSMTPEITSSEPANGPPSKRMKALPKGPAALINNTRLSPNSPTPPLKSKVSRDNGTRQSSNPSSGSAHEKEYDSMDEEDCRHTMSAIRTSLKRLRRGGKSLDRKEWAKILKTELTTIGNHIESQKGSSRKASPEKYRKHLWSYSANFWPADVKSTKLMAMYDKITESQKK
Experiment: ScCHD-1 Enzyme Inhibition Assay; note: in the data most compounds retested in dose-response had high values
Format: functional
Set-up: scale not given: direction of the effect not stated beside the values
Conditions: 30 µM
Measured Metric: Percent Effect (%)
Give the value in % but do not write % after it.

Some solved entries appear below for comparison.
### Prompt Any idea what its Percent Effect is? The compound is "COc1ccccc1[C@@H]1CN(C(=O)c2csc(C)n2)C[C@H]1C(=O)O"
### Response -3.19

### Prompt Any idea what its Percent Effect is? The compound is "O=C(C1=CCCC1)N1CCC[C@]2(C[C@@H](OCc3ccncc3)CO2)C1"
### Response -9.61

### Prompt Any idea what its Percent Effect is? The compound is Cc1cc(C2CCCN(C(=O)c3cnccn3)C2)ccn1 (configuration not stated)
### Response 6.76

### Prompt Any idea what its Percent Effect is? The compound is "CC(C)(C)c1noc(CN2CCCN(Cc3cccs3)CC2)n1"
### Response -5.35

### Prompt Any idea what its Percent Effect is? The compound is "O=C(c1cc(C2CC2)[nH]n1)N1CCN(Cc2ccsc2)CC1"
### Response -1.29

### Prompt Any idea what its Percent Effect is? The compound is COCCc1noc(CNCC2CCCN2c2cccnn2)n1 (configuration not stated)
### Response -23.1

### Prompt Any idea what its Percent Effect is? The compound is CCN(C(=O)COC)C(c1cccnc1)c1cc(C)cc(C)c1 (configuration not stated)
### Response -2.33

### Prompt Any idea what its Percent Effect is? The compound is Cc1nc(C)n(CC2CN(Cc3cccc(C#N)c3)CCO2)n1 (configuration not stated)
### Response -3.18

Others:
### Prompt Any idea what its Percent Effect is? The compound is "CC(C)(C)c1nnc(CN2CCN(S(C)(=O)=O)CC2)o1"
### Response -3.73

### Prompt Any idea what its Percent Effect is? The compound is "Cc1ccsc1C(=O)N1Cc2ccccc2C2(CCN(C)CC2)C1"
### Response -2.8

### Prompt Any idea what its Percent Effect is? The compound is Fc1cnc(N2CCC3(COCc4cnc(NCC5CC5)nc43)C2)nc1 (configuration not stated)
### Response 2.6

### Prompt Any idea what its Percent Effect is? The compound is Cc1nn(C)c(C)c1C1CCCN1C(=O)CCc1cscn1 (configuration not stated)
### Response 2.83

### Prompt Any idea what its Percent Effect is? The compound is CN(CC(=O)N1CCC(C(O)c2ccccc2)CC1)c1cnccn1 (configuration not stated)
### Response -7.9

### Prompt Any idea what its Percent Effect is? The compound is "O=C(Nc1ccc(CCN2CCC(O)CC2)cc1)Nc1cccnc1"
### Response -3.57

### Prompt Any idea what its Percent Effect is? The compound is "Cc1cc(N2CCC(c3nnc(CN(C)C)n3C3CC3)CC2)ccn1"
### Response -4.13

### Prompt Any idea what its Percent Effect is? The compound is Cc1nn(C)c(C)c1C1CCCN1Cc1cccc(C(=O)N(C)C)c1 (configuration not stated)
### Response 0.0198

* * *

Percent Effect values, listed per item
Target: Sialic acid-binding Ig-like lectin 9 (Homo sapiens)
Test: Hs-Siglec9 ALPHAscreen SOP 20170721
Set-up: scale not given: direction of the effect not stated beside the values
Conditions: 10 µM
Give the value in % but do not write % after it.

Some solved entries appear below for comparison.
### Prompt Any idea what its Percent Effect is? The molecule is "COc1cc(C(=O)N2CCCS2(=O)=O)cc(Cl)c1OC"
### Response 3.41

### Prompt Any idea what its Percent Effect is? The molecule is CN(C)CC(=O)N1CCC2(CCN(Cc3ccccn3)C2=O)C1 (centres undefined)
### Response -3.23

### Prompt Any idea what its Percent Effect is? The molecule is "O=C(Nc1cccc(CNCc2cccs2)c1)C1CCCC1"
### Response -3.26

### Prompt Any idea what its Percent Effect is? The molecule is "Cc1cc(NCc2cc3n(n2)CCCN(C(=O)N(C)C)C3)ncn1"
### Response 3.53

### Prompt Any idea what its Percent Effect is? The molecule is "COc1ccccc1CN1CC[C@H]2C[C@@H](C(=O)N3CCCC3)O[C@H]2C1"
### Response -5.31

### Prompt Any idea what its Percent Effect is? The molecule is "Cc1csc(CN2CC[C@H]3C[C@H](c4nnc(C)[nH]4)O[C@@H]3C2)n1"
### Response 0.797

### Prompt Any idea what its Percent Effect is? The molecule is O=S(=O)(NCCN1CCCCC1Cn1cncn1)c1ccccc1 (centres undefined)
### Response 6.15

### Prompt Any idea what its Percent Effect is? The molecule is "O=C(CCc1ccccc1)NCC1CCN(Cc2ccsc2)CC1"
### Response -9.22

Others:
### Prompt Any idea what its Percent Effect is? The molecule is "CC(C)n1ccnc1C1CCN(C(=O)c2ccccc2)CC1"
### Response 13.1

### Prompt Any idea what its Percent Effect is? The molecule is "CCOC(=O)N1CCN(C(=O)c2ccc3ccn(C)c3c2)CC1"
### Response 29

### Prompt Any idea what its Percent Effect is? The molecule is CCCS(=O)(=O)NC(C)C(=O)NCc1ccc(N2CCCC2)nc1 (centres undefined)
### Response -2.65

### Prompt Any idea what its Percent Effect is? The molecule is "COCc1ncc(CN2CCC(Oc3ccccc3OC)CC2)cn1"
### Response 1.93

### Prompt Any idea what its Percent Effect is? The molecule is "Cc1ncsc1C(=O)NC1CCN(Cc2ccc(C#N)cc2)CC1"
### Response 12.4

### Prompt Any idea what its Percent Effect is? The molecule is "O=C(CSc1ccc(F)c(F)c1)NS(=O)(=O)c1ccc2c(c1)OCCO2"
### Response -9.59
